This listing pairs compounds with measured IC50.
# Test system: B16
# assay info: In vitro evaluation for cytotoxicity against B16 melanoma.
# Format: functional, cell-based
# settings: Mus musculus
The answer is to be given in ng/mL; state only the numeric part.

Write down measured IC50 (B16) for this compound. `COC(=O)[C@@]1(C)N=C2C(=O)C=C3N(C(=O)c4cc5cc(OC)c(OC)c(OC)c5[nH]4)C[C@H]4C[C@@]34C2=C1O`
0.8

Write down measured IC50 (B16) for this compound. `COC(=O)[C@]1(C)N=C2C(=O)C=C3N(C(=O)c4cc5cc(OC)c(OC)c(OC)c5[nH]4)C[C@H]4C[C@@]34C2=C1O`
0.2
